Target: Sentrin-specific protease 8 (Homo sapiens);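 also: luminescence read-out of SENP8 inhibition, dose-response confirmation following an ultra-high-throughput screen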
Sequence (Q96LD8 whole entry): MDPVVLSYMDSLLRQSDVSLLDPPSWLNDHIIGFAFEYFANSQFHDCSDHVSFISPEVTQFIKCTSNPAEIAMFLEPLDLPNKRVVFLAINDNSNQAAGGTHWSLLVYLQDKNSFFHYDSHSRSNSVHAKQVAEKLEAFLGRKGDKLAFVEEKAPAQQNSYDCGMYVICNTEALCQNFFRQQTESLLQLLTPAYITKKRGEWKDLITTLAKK
Assay type: functional
Active and inactive are the calls of the source.
Possible outcomes: 1 for active, -1 for inactive

>>> label("O=C(NC1(O)C(=O)c2ccccc2C1=O)c1c(Cl)cccc1Cl")
1
>>> label("Brc1ccc(-c2cnc(-c3cccs3)o2)cc1")
1
>>> label("CN1C(=O)S/C(=C/c2ccc(OCc3cccc(C(=O)O)c3)cc2)C1=O")
1
>>> label("COc1ccc2nc(Nc3nc4cc5c(cc4s3)OCCO5)sc2c1")
-1
>>> label("Cc1ccc2oc(-c3ccco3)nc2c1")
-1
>>> label("O=S(=O)(Nc1ccc(-c2nc3cccnc3s2)cc1)c1ccc(Cl)s1")
1
>>> label("O=C(COC(=O)c1ccc([N+](=O)[O-])s1)Nc1ncc(C(F)(F)F)cc1Cl")
1
>>> label("Cc1c(NC(=O)c2ccc(NC(=O)C3CC3)cc2)cccc1C(=O)O")
1
>>> label("O=C(NC1(O)C(=O)c2ccccc2C1=O)c1ccc(C(F)(F)F)cc1")
1
>>> label("CCN(c1ccccc1)c1cc2ccccc2c(=O)[nH]1")
1

====

Assay: inhibitors of intracellular T. cruzi replication, confirmation, NIH3T3 host cells, beta-gal luminescence (AID 2044);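 also: intracellular parasites grown in NIH/3T3 mouse fibroblasts as host cells; luminescent beta-galactosidase reporter signal from transgenic T. cruzi replicating inside host cells; inhibitors lower the luminescence signal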
Type: functional, cell-based
Active and inactive are the calls of the source.
property.label: EC50

>>> observed_measurement("COc1ccc(C2CC(c3ccc(C)cc3)Nc3nc(N)nn32)cc1 (stereo not drawn)")
"7210 nM (active)"
>>> observed_measurement("Cc1nc(N2CCOCC2)c2c(C)c(C(=O)Nc3ccc(C(F)(F)F)cc3)sc2n1")
"522 nM (active)"
>>> observed_measurement("CC(NCC(O)COC1CCC(C(C)(C)C)CC1)c1ccccc1 (stereo not drawn)")
"114 nM (active)"

====

Each entry below carries its reported IC50.
Target: Calpain-2 catalytic subunit (Sus scrofa, UniProt P43367)
Sequence (P43367 whole entry): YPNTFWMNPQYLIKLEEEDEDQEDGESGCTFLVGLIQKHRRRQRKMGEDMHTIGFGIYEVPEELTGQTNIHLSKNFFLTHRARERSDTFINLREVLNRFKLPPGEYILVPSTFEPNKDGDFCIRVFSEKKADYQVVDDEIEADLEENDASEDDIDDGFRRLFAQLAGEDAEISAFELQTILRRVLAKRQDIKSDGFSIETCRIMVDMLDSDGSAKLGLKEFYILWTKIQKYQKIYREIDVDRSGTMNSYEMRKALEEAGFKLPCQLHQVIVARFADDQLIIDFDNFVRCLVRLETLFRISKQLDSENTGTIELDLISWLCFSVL
Experiment: pig calpain II inhibitor potency, dose response, biochemical, fluorogenic peptide substrate (AID 1420)
Format: functional
property.label: IC50

>>> observed_measurement("Cc1ccccc1NC(=O)c1ccc(N/N=C/c2ccccc2O)c([N+](=O)[O-])c1")
"18.9 µM (not active)"
>>> observed_measurement("CCOC(=O)c1c2c(c(=S)n(-c3ccccc3)c1N)CCC2")
"7.26 µM (not active)"
>>> observed_measurement("COCCn1c(C)cc(C(=O)COC(=O)CNC(=O)c2ccccc2)c1C")
"> 50 µM (not active)"
>>> observed_measurement("CC(C)(C)NC(=O)c1ccc(Sc2ccccc2)c([N+](=O)[O-])c1")
"11.9 µM (not active)"
